Target: T1, VPAC1
T1 sequence (P32241 whole entry, species assumed, looked up): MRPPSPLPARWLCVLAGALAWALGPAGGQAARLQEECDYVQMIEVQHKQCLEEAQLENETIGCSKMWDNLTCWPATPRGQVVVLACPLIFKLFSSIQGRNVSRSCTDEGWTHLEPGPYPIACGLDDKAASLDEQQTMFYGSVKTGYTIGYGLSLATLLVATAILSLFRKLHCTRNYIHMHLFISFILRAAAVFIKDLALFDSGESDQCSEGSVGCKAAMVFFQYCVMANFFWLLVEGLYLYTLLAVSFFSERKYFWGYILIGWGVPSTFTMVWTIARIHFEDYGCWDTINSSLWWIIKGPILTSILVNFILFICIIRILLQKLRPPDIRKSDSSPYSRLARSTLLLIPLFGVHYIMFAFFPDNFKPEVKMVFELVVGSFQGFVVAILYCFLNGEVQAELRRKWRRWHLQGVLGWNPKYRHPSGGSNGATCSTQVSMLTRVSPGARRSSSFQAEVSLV
Test: cell-based or functional assay
Where no end group is shown, it is not given here. [ ]: non-standard residue; d: D form. The star is where a group is joined. βGlc = OC[C@H]1O[C@@H](*)[C@H](O)[C@@H](O)[C@@H]1O; Nle = CCCC[C@H](N)C(=O)O
Binary call on EC50 (agonist) with cut-off 80 nM: strictly below means satisfied, and equality or higher means not satisfied.

These solved cases illustrate the format of a correct answer.
• H[dS]DGIFADSYSRYRKQ[Nle]AVKKYLAAVS(βGlc)L-NH2 (ends and bridges not checked) [HsDGIFADSYSRYRKQÑAVKKYLAAV-Ser(Glc)-L] = not satisfied
• H[dS]DGIFTDSYSRYRKQ[Nle]AVKKYLAALS(βGlc)L-NH2 (ends and bridges not checked) [HsDGIFTDSYSRYRKQÑAVKKYLAAL-Ser(Glc)-L] = satisfied
• HSDGIFTDSYSRYRKQXAVKKYLAAVLS (D-Serine at 2 (s); L-Nor-Leucine at 17 (Ñ, written X in letters); Ser 28 = L-Ser(β-D-Glc)) [HsDGIFTDSYSRYRKQÑAVKKYLAAVL-Ser(Glc)] = satisfied
• HSDGIFTDSYSRYRKQLAVKKYLAAVLS(melibiose)-NH2 [HSDGIFTDSYSRYRKQLAVKKYLAAVL-Ser(Mel)] = satisfied
• HSDGIFADSYSRYRKQXAVKKYLAAVS (D-Serine at 2 (s); L-Nor-Leucine at 17 (Ñ, written X in letters); Ser 27 = L-Ser(β-D-Glc)) [HsDGIFADSYSRYRKQÑAVKKYLAAV-Ser(Glc)] = not satisfied

We next turn to a different binder, shown below.
Threshold test, EC50 (agonist) < 80 nM: HSDGIFTDSYSRYRKQXAVKKYLAAVS (D-Serine at 2 (s); L-Nor-Leucine at 17 (Ñ, written X in letters); Ser 27 = L-Ser(β-D-Glc)) [HsDGIFTDSYSRYRKQÑAVKKYLAAV-Ser(Glc)] satisfied
